Origin of measurements: patent US4826982A

Items are presented alongside their recorded MIC.
System: Pseudomonas aeruginosa V-1
Test Protocol: Antibacterial spectrum, MIC
Condition Parameters: V1

// below: answered compounds
- Compound: "CC1COc2c(N3CCN(C)CC3)c(F)cc3c(=O)c(C(=O)O)cn1c23 (stereo not drawn) [OFLX, ofloxacin, reference compound]"
  Value: "0.39 µg/mL"
- Compound: "CC1CN(c2c(F)cc3c(=O)c(C(=O)O)cn(C4CC4)c3c2Br)CCN1.Cl (stereo not drawn)"
  Value: "0.39 µg/mL"

Moving on to the next compound.
Problem: Fill blank: measured MIC of the compound "O=C(O)c1cn(C2CC2)c2c(Br)c(N3CCNCC3)c(F)cc2c1=O" is ____.
Solution: 0.39 µg/mL
